# Tested on: HEK-293T
# experimentSummary: Multiplex assay against HEK293T
# Type: toxicity, cell-based
# conditionDescription: human, 24 h, 1 µM, compound concentration 1 uM, replicate 2
Could you please mark class 1 for values of Total Cell Count below 400 and class 0 for values at or above it?

Total Cell Count strictly < 400 for this molecule? CCCCC1=NC2(CCCC2)C(=O)N1Cc1ccc(-c2ccccc2-c2nnn[nH]2)cc1
class 0

Total Cell Count strictly < 400 for this molecule? CC(/C=C1\SC(=S)N(CCCC(=O)Nc2ccc(C(=O)O)c(O)c2)C1=O)=C\c1ccccc1
class 0

Total Cell Count strictly < 400 for this molecule? COc1cccc2c1c(NS(=O)(=O)c1ccc(Cl)s1)nn2Cc1cccc(CNC(=O)C(C)(C)O)c1
class 1

Total Cell Count strictly < 400 for this molecule? COc1ccccc1N1CCN(C[C@@H](C(=O)NC(C)(C)C)c2ccccc2)CC1.Cl.Cl
class 1

Total Cell Count strictly < 400 for this molecule? Cc1sc2c(c1C)C(c1ccc(Cl)cc1)=N[C@@H](CC(=O)NCCCCCCCCNC(=O)COc1cccc3c1C(=O)N(C1CCC(=O)NC1=O)C3=O)c1nnc(C)n1-2 (stereo partly drawn)
class 1

Total Cell Count strictly < 400 for this molecule? CCCOc1ccc2[nH]cc(C3=CCNCC3)c2n1.Cl
class 0

Total Cell Count strictly < 400 for this molecule? CC(C)(C)c1cc(NC(=O)Nc2ccc(-c3cn4c(n3)sc3cc(OCCN5CCOCC5)ccc34)cc2)no1
class 0

Total Cell Count strictly < 400 for this molecule? CN1CCN(c2cc(-c3ccccc3)nc(N)n2)CC1
class 0

Total Cell Count strictly < 400 for this molecule? CN(C)C(=O)Cn1cc(-c2ccc(-c3cncc4ccccc34)cc2)cn1
class 1

Total Cell Count strictly < 400 for this molecule? CN[C@@H](C)C(=O)N[C@H](C(=O)N1CCC[C@H]1C(=O)Nc1snnc1-c1ccccc1)C1CCCCC1
class 1

Total Cell Count strictly < 400 for this molecule? Cl.N=C(N)NC(=O)Cc1c(Cl)cccc1Cl [GUANFACINE HYDROCHLORIDE]
class 1

Total Cell Count strictly < 400 for this molecule? CC(C)c1noc(N2CCC(COc3ccc(-c4ccc(S(C)(=O)=O)cc4)nc3)CC2)n1
class 0

Total Cell Count strictly < 400 for this molecule? Cc1cnc(-c2cc(N3CCN(C(=O)CCS(C)(=O)=O)CC3)ncc2Cl)c(C)c1
class 0

Total Cell Count strictly < 400 for this molecule? Cc1noc(-c2ccc(-c3ccc(CC(=O)O)cc3)cc2)c1NC(=O)O[C@H](C)c1ccccc1Cl
class 1

Total Cell Count strictly < 400 for this molecule? O=C1[C@H](Cc2ccc(O)cc2)N2C(=O)CCN(C(=O)NCc3ccccc3)[C@H]2CN1Cc1cccc2ccccc12
class 1

Total Cell Count strictly < 400 for this molecule? Cc1c(CC(=O)O)c2cccnc2n1Cc1ccc(S(C)(=O)=O)cc1C(F)(F)F
class 0

Total Cell Count strictly < 400 for this molecule? COC[C@@H](c1ccc(C(F)(F)F)cc1)N1CCN(C2(C)CCN(C(=O)c3c(C)ncnc3C)CC2)C[C@@H]1C.O=C(O)/C=C\C(=O)O [VICRIVIROC MALEATE]
class 0

Total Cell Count strictly < 400 for this molecule? Br.CS(=O)(=O)Nc1c(O)ccc2c1CCCC2C1=NCCN1 (stereo not drawn)
class 1

Total Cell Count strictly < 400 for this molecule? O=C(CCCc1ccccc1)Nc1nc2ccccc2c(=O)s1
class 1

Total Cell Count strictly < 400 for this molecule? Cl.NCCc1ccc(O)c(O)c1 [DOPAMINE HYDROCHLORIDE]
class 0
